# TEST_METHOD_NOTES: basal MM1S mitochondrial membrane potential changes, profiling panel, cell-based, JC-1 fluorescence, 24 h, 100 nL compound (AID 1170); further: test concentration not given here
# DETAILS: higher = more signal
RESULT_TYPE: z-score

Here's what some known entries look like.
{"columns": ["COMPOUND", "RESULT_TYPE", "RESULT_VALUE"],
 "data": [
  ["COCCOC(=O)N1C(=O)[C@@]2(c3cc(C#CCCO)ccc31)[C@H](C(N)=O)[C@H]1C(=O)O[C@H](c3ccccc3)[C@H](c3ccccc3)N1[C@@H]2c1ccc(OCCO)cc1", "z-score", -0.0622],
  ["COCCOC(=O)N1C(=O)[C@@]2(c3cc(C#CCC(C(=O)OC)C(=O)OC)ccc31)[C@H](C(=O)NC[C@H](O)c1ccccc1)[C@H]1C(=O)O[C@H](c3ccccc3)[C@H](c3ccccc3)N1[C@@H]2c1ccc(OCCO)cc1", "z-score", -0.724],
  ["CN(C)C(=O)[C@]1(CCS(=O)(=O)c2ccccc2)N=C(c2ccc(OCCCO)cc2)O[C@@H]1c1ccccc1", "z-score", -1.24]
]}

For C=C(CCCC)C(=O)CC[C@H](OC(=O)c1ccccc1-c1ccccc1C(=O)O)c1ccccc1OCCO the compound record lists z-score as 0.311

For [N-]=[N+]=Nc1ccccc1C[C@]1(C(=O)O)N=C(c2ccc(OCCCO)cc2)O[C@H]1c1ccccc1N=[N+]=[N-] the compound record lists z-score as 0.51

For COc1ccc(NC(=O)O[C@H]2[C@@H]3OC(=O)[C@H](Cc4cccc(Br)c4)C/C=C/C[C@@H](Cc4cccc(Br)c4)C(=O)O[C@H]3[C@@H](OC)O[C@@H]2CO)cc1 the compound record lists z-score as 0.329

For COCCOC(=O)N1C(=O)[C@@]2(c3cc(C#CCCO)ccc31)[C@H](C(=O)N1CCCCCCC1)[C@H]1C(=O)O[C@H](c3ccccc3)[C@H](c3ccccc3)N1[C@@H]2c1ccccc1OCCO the compound record lists z-score as -0.513

For COc1cc(NN2C(C(O)c3cc(OC)c(OC)c(OC)c3)C=CC3C(=O)N(c4ccccc4)C(=O)C32)cc(OC)c1OC (stereo not drawn) the compound record lists z-score as -0.755

For O=C1OCCC=C[C@H]2OC34C=CCN(c5ccc(Cl)cc5)C(=O)[C@H]3N(CCCCCCO)C(=O)[C@@H]4C12 (stereo partly drawn) the compound record lists z-score as 1.34

For C[C@@]12COC[C@]13C=C(Br)[C@H](C2)[C@@]1(CO1)C3=O the compound record lists z-score as -1.12

For CCOC(=O)C[C@H]1[C@H](OC(=O)c2ccccc2-c2ccccc2)[C@@H](NC(=O)c2ccccc2)c2cc(OCCCO)ccc2N1C(=O)c1ccccc1 the compound record lists z-score as 0.318

For O=C1N[C@@H](Cc2ccccc2)C(=O)N2[C@@H]1C[C@@H](C(=O)O)[C@H]2c1ccc(O)cc1 the compound record lists z-score as -0.75

For CCCCC(=O)N(CCN1CCOCC1)[C@@H]1CC(C(=O)NCCO)=C[C@H](Oc2c(I)cc(CO)cc2OC)[C@H]1O the compound record lists z-score as -0.109

For CN(C)CCCCCCNC(=O)[C@@H]1C[C@@H]2C(=O)N[C@@H](CCCCN)C(=O)N2[C@@H]1c1ccc(O)cc1 the compound record lists z-score as -1

For CN1C(=O)C2C=CC(C(O)c3ccc(F)cc3)N(NC(=O)OC(C)(C)C)C2C1=O (stereo not drawn) the compound record lists z-score as 1.3

For CC=CC(O)C1C=CC2C(=O)NC(=O)C2N1Nc1ccccn1 (stereo not drawn) the compound record lists z-score as -0.121

For COc1cc(NN2C(C(O)C3CCCCC3)C=CC3C(=O)N(C)C(=O)C32)cc(OC)c1OC (stereo not drawn) the compound record lists z-score as 0.144

For COCCOC(=O)N1C(=O)[C@@]2(c3cc(C#CCC(C(=O)OC)C(=O)OC)ccc31)[C@H](c1ccc(O)cc1)N1[C@H](c3ccccc3)[C@H](c3ccccc3)OC(=O)[C@H]1[C@@H]2C(=O)NC[C@H](O)c1ccccc1 the compound record lists z-score as -0.91
